Data provenance is ChEMBL document CHEMBL4665919.

- assayName: Kinetic solubility of compound in acetate buffer at pH 4
- Type: physicochemical
- particulars: read-out: Kinetic_solubility

- compoundString: "CC(C)(O)CN1C(=O)[C@H](F)C[C@H]1C(=O)N1CC[C@@]2(S(=O)(=O)c3ccc(F)cc3)c3ccc(C(F)(C(F)(F)F)C(F)(F)F)cc3CC[C@@H]12"
  solubility kinetic: "< 1 µg/mL"

###

- assayName: Permeability across apical to basolateral side in human Caco2 cells
- Assay type: ADME, cell-based
- particulars: Caco-2, read-out: permeability

- compoundString: "CC(C)(O)CN1C(=O)[C@H](F)C[C@H]1C(=O)N1CC[C@@]2(S(=O)(=O)c3ccc(F)cc3)c3ccc(C(F)(C(F)(F)F)C(F)(F)F)cc3CC[C@@H]12"
  Papp A→B: "9.3 ×10⁻⁶ cm/s"

###

- experimentalSystem: Cytochrome P450 3A4 (Homo sapiens, UniProt P08684)
- Sequence (P08684 whole entry): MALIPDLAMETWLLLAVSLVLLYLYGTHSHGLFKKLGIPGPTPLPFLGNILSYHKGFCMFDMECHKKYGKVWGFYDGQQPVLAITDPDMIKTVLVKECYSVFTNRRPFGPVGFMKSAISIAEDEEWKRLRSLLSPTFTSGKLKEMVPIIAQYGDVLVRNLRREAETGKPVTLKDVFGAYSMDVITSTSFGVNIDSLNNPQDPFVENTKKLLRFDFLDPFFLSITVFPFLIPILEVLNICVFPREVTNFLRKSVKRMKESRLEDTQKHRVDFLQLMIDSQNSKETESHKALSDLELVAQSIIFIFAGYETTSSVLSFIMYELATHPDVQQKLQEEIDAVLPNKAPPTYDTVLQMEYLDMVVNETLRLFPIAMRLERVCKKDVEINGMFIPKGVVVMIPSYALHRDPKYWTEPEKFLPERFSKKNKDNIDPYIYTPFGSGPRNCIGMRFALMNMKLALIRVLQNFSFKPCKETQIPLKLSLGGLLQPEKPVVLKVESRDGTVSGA

- compoundString: "CC(C)(O)CN1C(=O)[C@H](F)C[C@H]1C(=O)N1CC[C@@]2(S(=O)(=O)c3ccc(F)cc3)c3ccc(C(F)(C(F)(F)F)C(F)(F)F)cc3CC[C@@H]12"
  IC50: "> 20 µM"

###

- assayName: AUC in BALB/c mouse at 4 mg/kg, po
- Type: ADME, organism-based
- Parameters: dose 4 mg/kg
- particulars: in vivo

- compoundString: "CC(C)(O)CN1C(=O)[C@H](F)C[C@H]1C(=O)N1CC[C@@]2(S(=O)(=O)c3ccc(F)cc3)c3ccc(C(F)(C(F)(F)F)C(F)(F)F)cc3CC[C@@H]12"
  unitDescriptor: "µM·h"
  AUC: 44.4

###

- assayName: Cmax in IL-23 induced acanthosis C57BL/6 mouse model of psoriasis measured as (3R,5S)-3-Fluoro-5-((3aR,9bR)-9b-((4-fluorophenyl)sulfonyl)-7-(perfluoropropan-2-yl)-2,3,3a,4,5,9b-hexahydro-1H-benzo[e]indole-3-carbonyl)-1-(2-hydroxy-2-methylpropyl)pyrrolidin-2-one at 15 mg/kg, po qd administered for 9 days 2 hrs before IL-23 injection
- Format: ADME, organism-based
- Design: route oral, dose 15 mg/kg, time 9 day
- particulars: in vivo, 216 h

- compoundString: "CC(C)(CN1C(=O)[C@H](F)C[C@H]1C(=O)N1CC[C@@]2(S(=O)(=O)c3ccc(F)cc3)c3ccc(C(F)(C(F)(F)F)C(F)(F)F)cc3CC[C@@H]12)OP(=O)(O)O"
  unitDescriptor: "nM"
  Cmax: 2580

###

Listed next: entries and their corresponding half-life.
- assayName: Half life in rat liver microsomes
- Assay type: ADME, Microsome

- compoundString: "[2H]C([2H])([2H])N1C(=O)[C@@H](F)C[C@H]1C(=O)N1CC[C@@]2(S(=O)(=O)c3ccc(F)cc3)c3ccc(C(F)(C(F)(F)F)C(F)(F)F)cc3CC[C@@H]12"
  half-life: "48 min"
- compoundString: "[2H]C([2H])([2H])N1C(=O)[C@H](F)C[C@H]1C(=O)N1CC[C@@]2(S(=O)(=O)c3ccc(F)cc3)c3ccc(C(F)(C(F)(F)F)C(F)(F)F)cc3CC[C@@H]12"
  half-life: "> 120 min"
- compoundString: "O=C1[C@H](F)C[C@@H](C(=O)N2CC[C@@]3(S(=O)(=O)c4ccc(F)cc4)c4ccc(C(F)(C(F)(F)F)C(F)(F)F)cc4CC[C@@H]23)N1Cc1ccc(F)cc1"
  half-life: "35 min"
- compoundString: "CC(C)N1C(=O)[C@H](F)C[C@H]1C(=O)N1CC[C@@]2(S(=O)(=O)c3ccc(F)cc3)c3ccc(C(F)(C(F)(F)F)C(F)(F)F)cc3CC[C@@H]12"
  half-life: "45 min"
- compoundString: "CC(C)(O)CN1C(=O)[C@H](F)C[C@H]1C(=O)N1CC[C@@]2(S(=O)(=O)c3ccc(F)cc3)c3ccc(C(F)(C(F)(F)F)C(F)(F)F)cc3CC[C@@H]12"
  half-life: "> 120 min"

###

- assayName: Half life in mouse liver microsomes
- Format: ADME, Microsome
measuredParameter: half-life (h)

- compoundString: "[2H]C([2H])([2H])N1C(=O)[C@H](F)C[C@H]1C(=O)N1CC[C@@]2(S(=O)(=O)c3ccc(F)cc3)c3ccc(C(F)(C(F)(F)F)C(F)(F)F)cc3CC[C@@H]12"
  measuredParameter: "half-life"
  limitQualifier: ">"
  assayValue: 2
- compoundString: "CN1C(=O)[C@H](F)C[C@H]1C(=O)N1CC[C@@]2(S(=O)(=O)c3ccc(F)cc3)c3ccc(C(F)(C(F)(F)F)C(F)(F)F)cc3CC[C@@H]12"
  measuredParameter: "half-life"
  limitQualifier: "="
  assayValue: 1.25
- compoundString: "CC(C)(O)CN1C(=O)[C@H](F)C[C@H]1C(=O)N1CC[C@@]2(S(=O)(=O)c3ccc(F)cc3)c3ccc(C(F)(C(F)(F)F)C(F)(F)F)cc3CC[C@@H]12"
  measuredParameter: "half-life"
  limitQualifier: ">"
  assayValue: 2
- compoundString: "N#Cc1ccc(CN2C(=O)[C@H](F)C[C@H]2C(=O)N2CC[C@@]3(S(=O)(=O)c4ccc(F)cc4)c4ccc(C(F)(C(F)(F)F)C(F)(F)F)cc4CC[C@@H]23)cc1"
  measuredParameter: "half-life"
  limitQualifier: "="
  assayValue: 1.23
- compoundString: "N#CCCN1C(=O)[C@H](F)C[C@H]1C(=O)N1CC[C@@]2(S(=O)(=O)c3ccc(F)cc3)c3ccc(C(F)(C(F)(F)F)C(F)(F)F)cc3CC[C@@H]12"
  measuredParameter: "half-life"
  limitQualifier: "="
  assayValue: 1.32
